# System: U251 CNS
# test_description: NCI tumour cell line growth inhibition, 48 h
Here, each record is paired with measured TGI data.

// known answers, use as guide
CC1=Nc2ccccc2OC(C)=C1N=Nc1ccc2nc(C)[nH]c2c1	> 100 µM
Cc1cc2c(C)[nH]nc2c(C(=O)O)c1C	> 100 µM

Requested read-out: TGI. Entry: CCOC(=O)N1CCN(Cc2cc(=O)n3ccc(C)cc3n2)CC1
> 100 µM

Requested read-out: TGI. Entry: O=C1CCCCC1CN1CCCCC1 (configuration not stated)
> 100 µM

Requested read-out: TGI. Entry: Nc1ccc(C2=NNC(=O)Cc3cc4c(cc32)OCCO4)cc1Cl
> 50 µM

Requested read-out: TGI. Entry: Nc1cc(NN=C(c2ccc(O)cc2)c2ccc(O)cc2)c([N+](=O)[O-])cc1[N+](=O)[O-]
4.15 µM

Requested read-out: TGI. Entry: CCN(CC)C(=S)N/N=C/c1cc([N+](=O)[O-])ccc1O
> 100 µM
